Cited source for all entries: patent US12398107B2

The reader will find reported Test A disease control rating (wheat leaf blotch) values listed item by item below.
- System: Septoria tritici
- assay.overview: Test A: wheat leaf blotch, preventive spray on wheat seedlings
- Assay type: in vivo
- conditions.used: 50 ppm, 100 = 100% disease control, 0 = no control relative to controls
State just the number; it will be interpreted in %.

Answered cases to consult:
{"input.smiles": "Cc1nn(C)c(Nc2ccccc2[N+](=O)[O-])c1-c1c(F)cccc1F", "system.tested": "Septoria tritici", "obs.value": 100}
{"input.smiles": "Cc1cc(Cl)cc([N+](=O)[O-])c1Nc1c(-c2ccc(F)cc2Cl)c(C)nn1C", "system.tested": "Septoria tritici", "obs.value": 100}

Check the records and state Test A disease control rating (wheat leaf blotch) for `Cc1nn(C)c(Nc2c(Cl)cccc2[N+](=O)[O-])c1-c1ccc(F)cc1F`
100

Check the records and state Test A disease control rating (wheat leaf blotch) for `Cc1nn(C)c(Nc2c(Cl)cccc2[N+](=O)[O-])c1-c1ccc(F)cc1Br`
100
